- Measurement description: Area under the plasma concentration-time curve in rat after peroral administration
- Type: ADME, organism-based
- Run parameters: po
Would you mind telling me the reported log10(AUC) of each entry?
Lab note - AUC converted to log10 from values in ng·h/mL.

CCO[C@@H](Cc1ccc(OC/C=C/C#Cc2ccccc2)cc1)C(=O)O; 4.79

State the recorded log10(AUC) for every item in the following list.
1. CN(CCOc1ccc(CC2SC(=O)NC2=O)cc1)c1ccccn1 (stereo unspecified) [ROSIGLITAZONE]
2. CCO[C@@H](Cc1ccc(OC/C=C/C#Cc2ccc(C#C/C=C/COc3ccc(C[C@H](OCC)C(=O)O)cc3)cc2)cc1)C(=O)O
3. CCO[C@@H](Cc1ccc(OC/C=C/C#Cc2cccc(C#C/C=C/COc3ccc(C[C@H](OCC)C(=O)O)cc3)c2)cc1)C(=O)O
4. CCO[C@@H](Cc1ccc(OC/C=C(\C)c2ccc(-c3ccc(/C(C)=C/COc4ccc(C[C@H](OCC)C(=O)O)cc4)cc3)cc2)cc1)C(=O)O
5. CCO[C@@H](Cc1ccc(OC/C=C(\C)c2ccc(-c3ccccc3)cc2)cc1)C(=O)O

1. 4.16
2. 5.05
3. 4.93
4. 3.99
5. 5.06
